The reported numbers originate from ChEMBL document CHEMBL1143610.

# experimental system: Sarcoplasmic/endoplasmic reticulum calcium ATPase 1 (Homo sapiens, UniProt O14983)
# Sequence (O14983 whole entry, looked up): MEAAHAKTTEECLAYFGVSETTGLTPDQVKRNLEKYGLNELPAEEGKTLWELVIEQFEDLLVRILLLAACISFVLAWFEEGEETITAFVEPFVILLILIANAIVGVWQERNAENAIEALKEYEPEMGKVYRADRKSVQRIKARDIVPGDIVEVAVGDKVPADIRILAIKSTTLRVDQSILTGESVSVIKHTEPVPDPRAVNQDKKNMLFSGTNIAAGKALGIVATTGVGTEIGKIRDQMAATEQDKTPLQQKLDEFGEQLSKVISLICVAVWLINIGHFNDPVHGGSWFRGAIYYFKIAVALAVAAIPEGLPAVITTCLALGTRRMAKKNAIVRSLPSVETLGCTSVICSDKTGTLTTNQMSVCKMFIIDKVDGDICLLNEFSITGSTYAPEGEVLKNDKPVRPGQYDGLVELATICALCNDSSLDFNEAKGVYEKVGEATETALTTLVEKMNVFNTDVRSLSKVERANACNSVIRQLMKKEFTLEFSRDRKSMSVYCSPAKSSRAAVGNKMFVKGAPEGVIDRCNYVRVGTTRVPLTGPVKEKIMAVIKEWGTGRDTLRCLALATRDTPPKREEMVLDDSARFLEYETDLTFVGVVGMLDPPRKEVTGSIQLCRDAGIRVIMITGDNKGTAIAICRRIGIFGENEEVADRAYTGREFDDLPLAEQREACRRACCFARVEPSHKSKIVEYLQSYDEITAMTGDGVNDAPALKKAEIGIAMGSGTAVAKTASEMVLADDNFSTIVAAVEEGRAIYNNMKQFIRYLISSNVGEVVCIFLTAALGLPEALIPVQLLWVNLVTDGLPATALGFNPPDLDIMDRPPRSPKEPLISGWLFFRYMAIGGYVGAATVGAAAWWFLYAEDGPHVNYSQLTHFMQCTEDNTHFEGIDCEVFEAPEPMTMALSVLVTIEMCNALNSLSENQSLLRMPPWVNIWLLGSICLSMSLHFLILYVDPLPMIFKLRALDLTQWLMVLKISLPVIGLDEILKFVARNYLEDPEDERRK
# assay details: Inhibitory potency against sarco- endoplasmic reticulum calcium-ATPase in relative to thapsigargin
Binarize RIC50 at 0.3; below is True, at or above is False.

molecule	experimental system	class
C/C=C(/C)C(=O)O[C@H]1C(C)=C2[C@H]([C@@H]1OC(=O)CCCCCCC)[C@@](C)(OC(C)=O)C[C@H](OC(=O)CCC)[C@@]1(O)[C@H]2OC(=O)[C@@]1(C)O (stereo in doubt; form 2)	Sarcoplasmic/endoplasmic reticulum calcium ATPase 1 (Homo sapiens, UniProt O14983)	False
C/C=C(/C)C(=O)O[C@H]1C(C)=C2[C@H]([C@@H]1OC(=O)CCCCC)[C@@](C)(OC(C)=O)C[C@H](OC(=O)CCC)[C@@]1(O)[C@H]2O[C@H]2OCO[C@]21C	Sarcoplasmic/endoplasmic reticulum calcium ATPase 1 (Homo sapiens, UniProt O14983)	True
C/C=C(\C)C(=O)O[C@H]1C(C)=C2[C@H]([C@@H]1OC(=O)CCCCCCC)[C@@](C)(O)C[C@H](OC(=O)CCC)[C@@]1(O)[C@H]2OC(=O)[C@@]1(C)O	Sarcoplasmic/endoplasmic reticulum calcium ATPase 1 (Homo sapiens, UniProt O14983)	True
C/C=C(/C)C(=O)O[C@H]1C(C)=C2[C@H]([C@@H]1OC(=O)CCCCCCC)[C@@](C)(OC(C)=O)C[C@H](OC(=O)/C=C/c1ccc(NC(=O)OC(C)(C)C)cc1)[C@@]1(O)[C@H]2O[C@H](O)[C@@]1(C)O	Sarcoplasmic/endoplasmic reticulum calcium ATPase 1 (Homo sapiens, UniProt O14983)	False
C/C=C(/C)C(=O)O[C@H]1C(C)=C2[C@H]([C@@H]1OC(=O)CCCCCCC)[C@@](C)(OC(C)=O)C[C@H](OC(=O)CCCCCCN)[C@@]1(O)[C@H]2O[C@H](O)[C@@]1(C)O	Sarcoplasmic/endoplasmic reticulum calcium ATPase 1 (Homo sapiens, UniProt O14983)	True
C/C=C(/C)C(=O)O[C@H]1C(C)=C2[C@H]([C@@H]1OC(=O)CCCCCCC)[C@@](C)(OC(C)=O)C[C@H](OC(=O)CCCCCCCCCCCNC(=O)[C@@H](N)CO)[C@@]1(O)[C@H]2O[C@H](O)[C@@]1(C)O	Sarcoplasmic/endoplasmic reticulum calcium ATPase 1 (Homo sapiens, UniProt O14983)	False
C/C=C(/C)C(=O)O[C@H]1C(C)=C2[C@H]([C@@H]1OC(=O)CCCCCCC)[C@@](C)(OC(C)=O)C[C@H](OC(=O)CCC)[C@@]1(O)[C@H]2O[C@H]2O[C@]21C	Sarcoplasmic/endoplasmic reticulum calcium ATPase 1 (Homo sapiens, UniProt O14983)	True
C/C=C(/C)C(=O)O[C@H]1C(C)=C2[C@H]([C@@H]1OC(=O)CCCCC)[C@@](C)(O)C[C@H](OC(=O)CCC)[C@@]1(O)[C@H]2O[C@H]2OC(C)(C)O[C@]21C	Sarcoplasmic/endoplasmic reticulum calcium ATPase 1 (Homo sapiens, UniProt O14983)	True
C/C=C(/C)C(=O)O[C@H]1C(C)=C2[C@H]([C@@H]1OC(=O)CCCCCCC)[C@@](C)(OC(C)=O)C[C@H](OC(=O)CCCCCCCCCCN)[C@@]1(O)[C@H]2O[C@H](O)[C@@]1(C)O	Sarcoplasmic/endoplasmic reticulum calcium ATPase 1 (Homo sapiens, UniProt O14983)	False
C/C=C(/C)C(=O)O[C@H]1C(C)=C2[C@H]([C@@H]1OC(=O)CCCCCCC)[C@@](C)(OC(C)=O)C[C@H](OC(=O)CCCCCCCCCCCNC(=O)[C@H](C)N)[C@@]1(O)[C@H]2O[C@H](O)[C@@]1(C)O	Sarcoplasmic/endoplasmic reticulum calcium ATPase 1 (Homo sapiens, UniProt O14983)	False
C/C=C(/C)C(=O)O[C@H]1C(C)=C2[C@H]([C@@H]1OC(=O)CCCCC)[C@@](C)(OC(C)=O)C[C@H](OC(=O)CCC)[C@@]1(O)[C@H]2OC(=O)[C@@]1(C)O	Sarcoplasmic/endoplasmic reticulum calcium ATPase 1 (Homo sapiens, UniProt O14983)	False
C/C=C(/C)C(=O)O[C@H]1C(C)=C2[C@H]([C@@H]1OC(=O)CCCCCCC)[C@@](C)(O)C[C@H](OC(=O)CCCCCCC)[C@@]1(O)[C@H]2OC(O)[C@@]1(C)O (stereo partly specified)	Sarcoplasmic/endoplasmic reticulum calcium ATPase 1 (Homo sapiens, UniProt O14983)	True
C/C=C(/C)C(=O)O[C@H]1C(C)=C2[C@H]([C@@H]1OC(=O)CCCCC)[C@@](C)(OC(C)=O)C[C@H](OC(=O)CCC)[C@@]1(O)[C@H]2O[C@H]2O[C@@H](OCC)O[C@]21C	Sarcoplasmic/endoplasmic reticulum calcium ATPase 1 (Homo sapiens, UniProt O14983)	True
C/C=C(/C)C(=O)O[C@H]1C(C)=C2[C@H]([C@@H]1O)[C@@](C)(O)C[C@H](OC(=O)CCC)[C@@]1(O)[C@H]2O[C@H]2OC(C)(C)O[C@]21C	Sarcoplasmic/endoplasmic reticulum calcium ATPase 1 (Homo sapiens, UniProt O14983)	True
C/C=C(\C)C(=O)O[C@H]1C(C)=C2[C@H]([C@@H]1OC(=O)CCCCCCC)[C@@](C)(OC(C)=O)C[C@H](OC(=O)CCC)[C@@]1(OC(C)=O)[C@H]2OC(=O)[C@@]1(C)O	Sarcoplasmic/endoplasmic reticulum calcium ATPase 1 (Homo sapiens, UniProt O14983)	False
C/C=C(/C)C(=O)O[C@H]1C(C)=C2[C@H]([C@@H]1OC(=O)CCCCCCC)[C@@](C)(OC(C)=O)C[C@H](OC(=O)CCCCCCCN)[C@@]1(O)[C@H]2O[C@H](O)[C@@]1(C)O	Sarcoplasmic/endoplasmic reticulum calcium ATPase 1 (Homo sapiens, UniProt O14983)	True
